This collection of values is drawn from patent US20190330344A1.

The reader will find reported EC50 of mIL-2 release, DO11.10 T cell activation assay (human LAG-3) values listed item by item below.
- Assay target: T1, human LAG-3 expressed on cells (DO11.10 or HEK 293 cells over-expressing human LAG-3) (human, UniProt P18627 23-525)
- T1 sequence: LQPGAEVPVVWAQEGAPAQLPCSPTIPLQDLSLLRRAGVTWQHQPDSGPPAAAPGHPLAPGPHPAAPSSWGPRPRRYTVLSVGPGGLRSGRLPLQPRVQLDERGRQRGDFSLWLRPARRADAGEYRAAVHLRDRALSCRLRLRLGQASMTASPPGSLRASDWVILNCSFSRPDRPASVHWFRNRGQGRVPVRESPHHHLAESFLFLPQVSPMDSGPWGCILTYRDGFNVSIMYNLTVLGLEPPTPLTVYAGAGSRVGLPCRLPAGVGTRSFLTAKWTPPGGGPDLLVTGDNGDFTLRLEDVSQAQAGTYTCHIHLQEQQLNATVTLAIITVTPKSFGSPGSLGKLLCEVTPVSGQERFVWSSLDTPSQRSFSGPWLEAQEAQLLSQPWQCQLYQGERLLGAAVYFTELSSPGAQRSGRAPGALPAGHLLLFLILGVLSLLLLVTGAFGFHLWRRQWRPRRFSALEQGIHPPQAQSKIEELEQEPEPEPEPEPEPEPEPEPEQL
- Assay method text: cell-based or functional assay
Test readout: EC50 of mIL-2 release, DO11.10 T cell activation assay (human LAG-3) (nM)

# Binder, Units text, Numeric readout
rows = [
    ("anti-human LAG-3 Fcab FS18-7-88 with truncated hinge and LALA mutation (designed binder) TCPPCPAPEAAGGPSVFLFPPKPKDTLMISRTPEVTCVVVDVSHEDPEVKFNWYVDGVEVHNAKTKPREEQYNSTYRVVSVLTVLHQDWLNGKEYKCKVSNKALPAPIEKTISKAKGQPREPQVYTLPPSWDEPWGEDVSLTCLVKGFYPSDIAVEWESNGVPELNVKTTPPVLDSDGSFFLYSKLTVPYDRWVWPDEFSCSVMHEALHNHYTQKSLSLSPG", "nM", 1.3),
    ("anti-human LAG-3 Fcab FS18-7-9 with truncated hinge and LALA mutation (designed binder) TCPPCPAPEAAGGPSVFLFPPKPKDTLMISRTPEVTCVVVDVSHEDPEVKFNWYVDGVEVHNAKTKPREEQYNSTYRVVSVLTVLHQDWLNGKEYKCKVSNKALPAPIEKTISKAKGQPREPQVYTLPPSWDEPWGEDVSLTCLVKGFYPSDIAVEWESNGQPENNYKTTPPVLDSDGSFFLYSKLTVPYDRWVWPDEFSCSVMHEALHNHYTQKSLSLSPG", "nM", 1.2),
    ("anti-human LAG-3 Fcab FS18-7-36 with truncated hinge and LALA mutation (designed binder) TCPPCPAPEAAGGPSVFLFPPKPKDTLMISRTPEVTCVVVDVSHEDPEVKFNWYVDGVEVHNAKTKPREEQYNSTYRVVSVLTVLHQDWLNGKEYKCKVSNKALPAPIEKTISKAKGQPREPQVYTLPPSWDEPWGEDVSLTCLVKGFYPSDIAVEWESNGQPENNYKTTPPVLDSDGSYFLYSKLTVPYDRWVWPDEFSCSVMHEALHNHYTQKSLSLSPG", "nM", 1.3),
]
